B1: C20orf112 (parent)
chain: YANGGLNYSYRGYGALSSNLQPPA

# Variants of: B1
# experimental-details: protein stability index of a GFP-peptide fusion (GPS, HEK-293T) (PSI 1-6); higher = more stable;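 further: lentivirally expressed fusions sorted by FACS into six bins by GFP to DsRed ratio, PSI derived from sequencing read proportions per bin multiplied by bin number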
# experimental-parameters: c terminus: a fixed tail appended
Kind request: treat 2 as inclusive, so protein stability index at 2 or higher is label 1, anything lower is label 0.

Study these solved cases before continuing.
1. N19L    label 1
2. L16M    label 0
3. P22T    label 0

Please check the record "Y8V" and state if its protein stability index is at or above 2.
label 1
